Test system: NCI-H838
Assay: relative viability (nuclei count vs DMSO), 5 days (fraction); higher = more cells survive
Settings: first compound 4 µM
Would you mind telling me the reported relative viability of each entry?
# print the numeric value only

// recorded relative viability for Cc1sc2c(c1C)C(c1ccc(Cl)cc1)=N[C@@H](CC(=O)OC(C)(C)C)c1nnc(C)n1-2 [JQ1] + Cc1nc(NC(=O)N2CCC[C@H]2C(N)=O)sc1-c1ccnc(C(C)(C)C(F)(F)F)c1 [Alpelisib] (partner 2 µM) : 0.263

// recorded relative viability for Cc1sc2c(c1C)C(c1ccc(Cl)cc1)=N[C@@H](CC(=O)OC(C)(C)C)c1nnc(C)n1-2 [JQ1] + Cc1nc(Nc2ncc(C(=O)Nc3c(C)cccc3Cl)s2)cc(N2CCN(CCO)CC2)n1 [Dasatinib] (partner 0.075 µM) : 0.201

// recorded relative viability for Cc1sc2c(c1C)C(c1ccc(Cl)cc1)=N[C@@H](CC(=O)OC(C)(C)C)c1nnc(C)n1-2 [JQ1] + COc1cccc2cc(-c3nc([C@H]4CC[C@H](C(=O)O)CC4)n4ncnc(N)c34)[nH]c12 [OSI-027] (partner 0.5 µM) : 0.21

// recorded relative viability for Cc1sc2c(c1C)C(c1ccc(Cl)cc1)=N[C@@H](CC(=O)OC(C)(C)C)c1nnc(C)n1-2 [JQ1] + CS(=O)(=O)N1CCN(Cc2cc3nc(-c4cccc5[nH]ncc45)nc(N4CCOCC4)c3s2)CC1 [Pictilisib] (partner 1 µM) : 0.232
